Test system: HCC-2998 colon
assayRemarks: NCI tumour cell line growth inhibition, 48 h
I'd be grateful if you could share measured GI50 for these entries.

C#CCNC(=O)[C@H](CC)[C@H]1CC[C@H](C)[C@H]([C@@H](C)[C@H](O)[C@H](C)C(=O)[C@H](CC)C2O[C@]3(C=CC(=O)[C@]4(CC[C@@](C)([C@H]5CC[C@](O)(CC)[C@H](C)O5)O4)O3)[C@H](C)C[C@@H]2C)O1 (stereo partly drawn)	2.35 µM
N#CC1=C(/N=C/c2ccccc2)Oc2c(ccc3ccccc23)C1c1ccccc1 (stereo not drawn)	1.2 µM
O=[N+]([O-])c1ccc(N2CCOCC2)c2c1no[n+]2[O-]	1.53 µM
CCC1(O)C(=O)OCc2c1cc1n(c2=O)Cc2cc3c(NC(=O)CN)cccc3nc2-1 (stereo not drawn)	5.07 µM
COC(=O)c1cncc(/C=C/c2c(C)cc(O)cc2C)c1	13.3 µM

Report GI50 for each item below.
1. CC(C)(O)CNc1nc(Nc2ccnc(C(F)(F)F)c2)nc(-c2cccc(C(F)(F)F)n2)n1
2. COc1ccc(NC(=O)C2CCC(CNS(=O)(=O)c3ccccc3)CC2)cc1OC (stereo not drawn)
3. CC1(C)CC(=O)C2=C(C1)OC(N)=C(c1nc(-c3ccccc3)cs1)C2c1ccc(Br)cc1 (stereo not drawn)

-- reply
1. 20.3 µM
2. > 100 µM
3. 44.4 µg/mL

====

System: A549 NSCLC
assayRemarks: NCI tumour cell line growth inhibition, 48 h
I'd be grateful if you could share measured TGI for these entries.

Cc1ccc(-c2nc([P+](c3ccccc3)(c3ccccc3)c3ccccc3)c(S(=O)(=O)c3ccc(C)cc3)o2)cc1	5.14 µM
CC1(c2ccccc2Cl)C(C#N)C(=O)NC(=O)C1C#N (stereo not given)	> 100 µM
O=C(O)/C=C/c1nc2ccccc2c(=O)o1	> 100 µM
O=[N+]([O-])/C(C(Cl)=C(Cl)Cl)=C(/Cl)SCc1ccccc1	32.7 µM
CCOC(=O)c1c(C)n(-c2ccc(Cl)cc2)c2c1cc(O)c1[nH]c3c(c12)CCCC3	> 100 µM

Report TGI for each item below.
1. COC(=O)c1cc2c(cc1Cl)SC1=NN(C)C(N(C)C)N1S2(=O)=O (stereo not given)
2. O[C@@]12Cc3c([nH]c4ccccc34)[C@@H]3Oc4cccc5c4[C@@]31CCN(CC1CC1)[C@@H]2C5
3. COc1ccc(/C=N/n2c(C)n[nH]c2=O)c(OC)c1

-- reply
["> 100 µM", "43.5 µM", "> 100 µM"]

Report TGI for each item below.
1. O=C(O)Cc1cccnc1
2. NNC(=O)c1c(-c2cccnc2)cnc2ccccc12
3. CC1(C)CNCC(C)(OCc2ccccc2)C(=O)NC(C)(C)CNCC(C)(OCc2ccccc2)C(=O)N1 (stereo not given)
4. Cc1ccc(C)c(N2C(=O)C(=O)C(c3nc4ccccc4s3)/C(=N/NC(=O)NN)C2=O)c1 (stereo not given)
5. c1ccc(CCc2cccnc2)nc1
6. COC(=O)C1=C(OC(=O)/C(=C/c2ccc(Cl)cc2)c2ccc(Cl)cc2)C(C(=O)OC)[C@]2(O)[C@@H](C(=O)OC)[C@H]1C[C@@H](c1ccccc1)[C@@H]2C(=O)OC (stereo not given in full)
7. CCOC(=O)N1N=C(/C(C)=N/OC)C(C)S1=O (stereo not given)
8. CC1=NC(=Cc2ccccc2O)C(=O)N1n1c(-c2ccccc2)nc2ccccc2c1=O

-- reply
1: > 100 µM; 2: > 100 µM; 3: > 10 µM; 4: > 100 µM; 5: > 100 µM; 6: > 100 µM; 7: > 100 µM; 8: > 100 µM
